Source of measurements: ChEMBL document CHEMBL1201862

For each entry below, report its GI50 value.
test system: RXF 393; assay: NCI tumour cell line growth inhibition, 48 h
Activity calls are given as the source filed them. No stated cut-off is given here; in the data, active = GI50 up to about 1.1 µM and inactive = higher.

Some entries whose results are on file:
>>> print(df.to_string())
                                   compound  measuredmetric           assayvalue
0  CCOC(=O)CCC(NC(=O)c1ccc(Oc2nc3ccccc3nc2-c2ccccc2)cc1)C(=O)OCC (stereo not given)            GI50   20.1 µM (inactive)
1        Cc1c(C)c2c(c(N)c1C#N)C(=O)N(N)C2=O            GI50  > 100 µM (inactive)
2       CC(=O)C(=[N+]=[N-])C(=O)OC(C)(C)C#N            GI50   > 10 µM (inactive)

Okay, here is my list. What is GI50 for each of these?
1. O=C(c1ccc(Cl)cc1)c1ccc(OCCSCCCCCCCCCCSCCOc2ccc(C(=O)c3ccc(Cl)cc3)cc2)cc1
2. C[N+](C)=c1nc(N2CCOCC2)ss1

Result:
["> 100 µM (inactive)", "> 100 µM (inactive)"]
